# TARGET_OR_SYSTEM: DNA topoisomerase 1 (Homo sapiens) (UniProt P11387)
# Sequence (whole entry): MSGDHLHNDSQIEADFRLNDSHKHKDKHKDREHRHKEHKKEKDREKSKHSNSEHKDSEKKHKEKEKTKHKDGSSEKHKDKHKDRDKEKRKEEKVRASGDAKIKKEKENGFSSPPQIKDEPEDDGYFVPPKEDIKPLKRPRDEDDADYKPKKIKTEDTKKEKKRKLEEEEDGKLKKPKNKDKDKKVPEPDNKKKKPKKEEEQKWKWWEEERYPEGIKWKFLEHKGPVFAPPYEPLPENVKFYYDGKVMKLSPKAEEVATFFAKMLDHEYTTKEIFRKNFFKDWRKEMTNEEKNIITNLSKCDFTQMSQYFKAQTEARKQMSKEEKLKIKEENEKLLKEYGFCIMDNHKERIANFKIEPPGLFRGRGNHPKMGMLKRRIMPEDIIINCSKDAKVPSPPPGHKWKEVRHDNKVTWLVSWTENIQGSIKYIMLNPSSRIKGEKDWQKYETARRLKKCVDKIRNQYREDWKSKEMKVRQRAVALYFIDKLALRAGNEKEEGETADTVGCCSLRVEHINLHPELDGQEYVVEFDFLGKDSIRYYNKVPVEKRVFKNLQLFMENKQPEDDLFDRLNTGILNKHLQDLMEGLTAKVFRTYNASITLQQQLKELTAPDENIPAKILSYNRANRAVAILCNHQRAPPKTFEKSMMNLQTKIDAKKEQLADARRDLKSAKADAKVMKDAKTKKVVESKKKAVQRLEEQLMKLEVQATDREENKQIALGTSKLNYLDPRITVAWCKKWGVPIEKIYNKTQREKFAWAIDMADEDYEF
# PROTOCOL_DETAILS: Inhibition of topoisomerase 1 in human MDA-MB-231 cells assessed as DNA damage by measuring phosphorylated histone H2AX at IC50 concentration incubated for 24 hrs by staining based confocal fluorescence microscopy
# Assay type: cell-based
Activity calls are given as the source filed them. The calls are words filed in the database; no cut-off is given here.
Response enum: Yes for active, No for inactive

Solved cases below.
COc1c(OC(C)C)cc2oc(-c3csc4ccccc34)c(O)c(=O)c2c1O    No
COc1c(OC(C)C)cc2oc(-c3csc4ccccc34)c(O)c(=O)c2c1OC    Yes
COc1c(OC(C)C)cc2oc(-c3csc4ccccc34)c(O)c(=O)c2c1OC(C)C    Yes

Here is the next item to consider.
IN: Write down the call the test reported for this compound. Item: COc1c(OC(C)C)cc2oc(-c3csc4ccccc34)c(OC)c(=O)c2c1O
OUT: No
